Experiment: Kinetic solubility of Form CSII (saturated solutions, HPLC)
Type: physicochemical
Settings: PBS pH 7.4, aqueous buffer, thermodynamic from solid; pH=7.4 PBS, 25° C., 48 h
recorded metric: solubility at 48 h

Prompt line: What value of measured solubility at 48 h is listed for CC[C@@H]1CN(C(=O)NCC(F)(F)F)C[C@@H]1c1cnc2cnc3[nH]ccc3n12 [Form CSII] ?
Response line: 720 µg/mL

----------
Assay: Kinetic solubility of Form CSII (saturated solutions, HPLC)
Format: physicochemical
Conditions: FaSSIF pH 6.5, thermodynamic from solid; pH=6.5 FaSSIF, 37° C., 48 h
Protocol: The method parameters of kinetic solubility test in the present disclosure are as follows: A certain amount of Form CSII was suspended into pH=7.4 PBS, pH=6.5 FaSSIF and pH=5.0 FeSSIF at 25° C. or 37° C. to obtain saturated solutions. After equilibration for 24 h, 30 h and 48 h, the suspensions were filtered to obtain saturated solutions, and concentration was determined by HPLC.
recorded metric: solubility at 48 h
Could you kindly put the unit after your number?

Prompt line: What value of measured solubility at 48 h is listed for CC[C@@H]1CN(C(=O)NCC(F)(F)F)C[C@@H]1c1cnc2cnc3[nH]ccc3n12 [Form CSII] ?
Response line: 830 µg/mL
